Record form. Attribute: half-life. Fill in for each entry.
Assay: SPECT/CT imaging with 203Pb-labeled ligands
Format: in vivo
Conditions: mouse, kidneys, intravenous; ^203Pb-labeled; H69 tumor-bearing mice; read-out: Renal clearance half-life (converted)
One number for each entry, in h.

| compound | u | half-life |
| --- | --- | --- |
| C[C@@H](O)[C@H](NC(=O)[C@@H]1CSSC[C@H](NC(=O)[C@@H](Cc2ccccc2)NC(=O)[C@H]2CC[C@H](CNC(=O)CN3CCN(CC(N)=O)CCN(CC(N)=O)CCN(CC(N)=O)CC3)CC2)C(=O)N[C@@H](Cc2ccc(O)cc2)C(=O)N[C@H](Cc2c[nH]c3ccccc23)C(=O)N[C@@H](CCCCN)C(=O)N[C@@H]([C@@H](C)O)C(=O)N1)C(=O)O [[^203Pb]Pb-eSOMA-01, metal not drawn] | h | 14.7 |

Give its half-life value. Item: C[C@@H](O)[C@H](NC(=O)[C@@H]1CSSC[C@H](NC(=O)[C@@H](Cc2ccccc2)NC(=O)CN2CCC(NC(=O)CN3CCN(CC(N)=O)CCN(CC(N)=O)CCN(CC(N)=O)CC3)CC2)C(=O)N[C@@H](Cc2ccc(O)cc2)C(=O)N[C@H](Cc2c[nH]c3ccccc23)C(=O)N[C@@H](CCCCN)C(=O)N[C@@H]([C@@H](C)O)C(=O)N1)C(=O)O [[^203Pb]Pb-eSOMA-02, metal not drawn]
24.2

Provenance of the data: paper PMC10384862
